test: Solubility of terbinafine hydrochloride; format: physicochemical; settings: 50 mM ammonium phosphate buffer pH 8.0, aqueous buffer, thermodynamic from solid; solvent pH 8.0 buffer
Structures can show the parent of a compound that is named as a salt.
measurement.label: solubility at 24 h (µg/mL)

# molecule, obs.value
data = [
    ("CN(C/C=C/C#CC(C)(C)C)Cc1cccc2ccccc12 [Terbinafine, terbinafine hydrochloride]", 2),
]

====

experiment: Solubility of terbinafine hydrochloride; assay type: physicochemical; conditions: 50 mM ammonium acetate buffer pH 4.0, aqueous buffer, thermodynamic from solid; solvent pH 4.0 buffer
Counter-ions that a name gives are not always drawn.
measurement.label: solubility at 24 h (µg/mL)

# molecule, units.symbol, obs.value
records = [
    ("CN(C/C=C/C#CC(C)(C)C)Cc1cccc2ccccc12 [Terbinafine, terbinafine hydrochloride]", "µg/mL", 4800),
]
